Where do the numbers come from? From the supplement of paper PMC10598134.

Each item that follows carries a reported collision cross section.
RUN_DESCRIPTION: collision cross section of modified peptide (TIMS, N2, iRT-aligned); higher = larger / more extended gas-phase ion
CONDITION_SUMMARY: charge state: 2; modification: Formyl
± gives the standard deviation.
Give your result as the value with the unit written after it.

BIOPOLYMER_SEQUENCE: GTITVSAQELKDNR [_GTITVSAQELK(Formyl)DNR_]
collision cross section: 413.69 ± 0.19 Å²
--
BIOPOLYMER_SEQUENCE: SPDEAYAIAKK [_SPDEAYAIAK(Formyl)K_]
collision cross section: 364.33 ± 1 Å²

Query: Reported collision cross section, sequence SDDESSQKDIK [_SDDESSQK(Formyl)DIK_] : ____
Result: 368.14 ± 1.1 Å²

Query: Reported collision cross section, sequence SGFGKFER [_SGFGK(Formyl)FER_] : ____
Result: 326.95 ± 0.99 Å²

Query: Reported collision cross section, sequence IQQELQTAKK [_IQQELQTAK(Formyl)K_] : ____
Result: 369.08 ± 0.89 Å²

Query: Reported collision cross section, sequence DYSAPVNFISAGLKK [_DYSAPVNFISAGLK(Formyl)K_] : ____
Result: 433.25 ± 0.72 Å²

Query: Reported collision cross section, sequence DKALPLEAEVAPVK [_DK(Formyl)ALPLEAEVAPVK_] : ____
Result: 412.02 ± 0.74 Å²

Query: Reported collision cross section, sequence FLQEFYQDDELGKK [_FLQEFYQDDELGK(Formyl)K_] : ____
Result: 444.03 ± 0.77 Å²

Query: Reported collision cross section, sequence SNEEGSEEKGPEVR [_SNEEGSEEK(Formyl)GPEVR_] : ____
Result: 397.09 ± 0.55 Å²

---

RUN_DESCRIPTION: collision cross section of modified peptide (TIMS, N2, iRT-aligned); higher = larger / more extended gas-phase ion
CONDITION_SUMMARY: charge state: 2; modification: Succinyl
PARAMETER: collision cross section (Å²)
Hi! Could you send only the number? It should be in Å², unit omitted.

Worked set:
BIOPOLYMER_SEQUENCE: VETTVTSLKTK [_VETTVTSLK(Succinyl)TK_]
collision cross section [Å²]: 381.14

BIOPOLYMER_SEQUENCE: DYSAPVNFISAGLKK [_DYSAPVNFISAGLK(Succinyl)K_]
collision cross section [Å²]: 438.82

BIOPOLYMER_SEQUENCE: LQDVSGQLSSSKK [_LQDVSGQLSSSK(Succinyl)K_]
collision cross section [Å²]: 402.37

BIOPOLYMER_SEQUENCE: LQEKVESAQSEQK [_LQEK(Succinyl)VESAQSEQK_]
collision cross section [Å²]: 417.9

Query: Reported collision cross section, sequence ALASIDSKLNQAK [_ALASIDSK(Succinyl)LNQAK_] : ____
Result: 408.18

Query: Reported collision cross section, sequence LGNDFHTNKR [_LGNDFHTNK(Succinyl)R_] : ____
Result: 377.52

Query: Reported collision cross section, sequence PSVSTKLISK [_PSVSTK(Succinyl)LISK_] : ____
Result: 355.43

Query: Reported collision cross section, sequence TTGFYSGFSEVAEKR [_TTGFYSGFSEVAEK(Succinyl)R_] : ____
Result: 441.9

Query: Reported collision cross section, sequence TQAYQDQKPGTSGLR [_TQAYQDQK(Succinyl)PGTSGLR_] : ____
Result: 434.09

Query: Reported collision cross section, sequence LEEVTGKLQVAR [_LEEVTGK(Succinyl)LQVAR_] : ____
Result: 394.87

Query: Reported collision cross section, sequence VNVEAPDVNLEGLGGKLK [_VNVEAPDVNLEGLGGK(Succinyl)LK_] : ____
Result: 466.17

Query: Reported collision cross section, sequence TTEETSKPK [_TTEETSK(Succinyl)PK_] : ____
Result: 347.17

Query: Reported collision cross section, sequence YEEIVKEVSTYIK [_YEEIVK(Succinyl)EVSTYIK_] : ____
Result: 438.13

Query: Reported collision cross section, sequence DFDTALKHYDK [_DFDTALK(Succinyl)HYDK_] : ____
Result: 404.59

Query: Reported collision cross section, sequence AGPNASIISLKSDK [_AGPNASIISLK(Succinyl)SDK_] : ____
Result: 414.91

Query: Reported collision cross section, sequence DASTLQSQKAEGTGDAK [_DASTLQSQK(Succinyl)AEGTGDAK_] : ____
Result: 437.2

Query: Reported collision cross section, sequence ATVASSTQKFQDLGVK [_ATVASSTQK(Succinyl)FQDLGVK_] : ____
Result: 444.76

Query: Reported collision cross section, sequence IISSIEQKEENK [_IISSIEQK(Succinyl)EENK_] : ____
Result: 408.03

Query: Reported collision cross section, sequence DKALPLEAEVAPVK [_DK(Succinyl)ALPLEAEVAPVK_] : ____
Result: 421.55

Query: Reported collision cross section, sequence VQGGALEDSQLVAGVAFKK [_VQGGALEDSQLVAGVAFK(Succinyl)K_] : ____
Result: 480.13

Query: Reported collision cross section, sequence DLSTVEALQNLKNLK [_DLSTVEALQNLK(Succinyl)NLK_] : ____
Result: 483.86

Query: Reported collision cross section, sequence VDVEVPDVSLEGPEGKLK [_VDVEVPDVSLEGPEGK(Succinyl)LK_] : ____
Result: 456.12

---

RUN_DESCRIPTION: collision cross section of modified peptide (TIMS, N2, iRT-aligned); higher = larger / more extended gas-phase ion
CONDITION_SUMMARY: charge state: 2; modification: Biotin
PARAMETER: collision cross section (Å²)
Hi! Could you send only the number? It should be in Å², unit omitted.

Worked set:
BIOPOLYMER_SEQUENCE: DAEAAEATAEGALKAEK [_DAEAAEATAEGALK(Biotin)AEK_]
UNIT_STRING: Å²
OBS_VALUE: 451.86
--
BIOPOLYMER_SEQUENCE: KFGVLSDNFK [_K(Biotin)FGVLSDNFK_]
UNIT_STRING: Å²
OBS_VALUE: 394.71
--
BIOPOLYMER_SEQUENCE: PSVSTKLISK [_PSVSTK(Biotin)LISK_]
UNIT_STRING: Å²
OBS_VALUE: 375.49
--
BIOPOLYMER_SEQUENCE: DDSFLGKLGGTLAR [_DDSFLGK(Biotin)LGGTLAR_]
UNIT_STRING: Å²
OBS_VALUE: 427.7
--
BIOPOLYMER_SEQUENCE: TPNLYIYSKK [_TPNLYIYSK(Biotin)K_]
UNIT_STRING: Å²
OBS_VALUE: 409.6

Query: Reported collision cross section, sequence LTEKELAEAASK [_LTEK(Biotin)ELAEAASK_] : ____
Result: 418.47

Query: Reported collision cross section, sequence VFSIISSEKELK [_VFSIISSEK(Biotin)ELK_] : ____
Result: 432.12

Query: Reported collision cross section, sequence AGQKLIDVNHYAK [_AGQK(Biotin)LIDVNHYAK_] : ____
Result: 451.79

Query: Reported collision cross section, sequence TQAYQDQKPGTSGLR [_TQAYQDQK(Biotin)PGTSGLR_] : ____
Result: 446.01

Query: Reported collision cross section, sequence LQDVSGQLSSSKK [_LQDVSGQLSSSK(Biotin)K_] : ____
Result: 425.22

---

RUN_DESCRIPTION: collision cross section of modified peptide (TIMS, N2, iRT-aligned); higher = larger / more extended gas-phase ion
CONDITION_SUMMARY: charge state: 2; modification: Methyl (K)
# cutoff 400 Å² applies to collision cross section; >= gives satisfied, < gives not satisfied

BIOPOLYMER_SEQUENCE: VETTVTSLKTK [_VETTVTSLK(Methyl (K))TK_]
DISCRETE_LABEL: not satisfied
--
BIOPOLYMER_SEQUENCE: IPQEKCILQTDVK [_IPQEK(Methyl (K))CILQTDVK_]
DISCRETE_LABEL: satisfied

Query: Kindly determine if collision cross section recorded for TTGFYSGFSEVAEKR [_TTGFYSGFSEVAEK(Methyl (K))R_] is above or exactly 400 Å².
Result: satisfied

Query: Kindly determine if collision cross section recorded for SLKLNTAEDAK [_SLK(Methyl (K))LNTAEDAK_] is above or exactly 400 Å².
Result: not satisfied

Query: Kindly determine if collision cross section recorded for TPNLYIYSKK [_TPNLYIYSK(Methyl (K))K_] is above or exactly 400 Å².
Result: not satisfied

Query: Kindly determine if collision cross section recorded for ILDLKTGTVK [_ILDLK(Methyl (K))TGTVK_] is above or exactly 400 Å².
Result: not satisfied

Query: Kindly determine if collision cross section recorded for FLQEFYQDDELGKK [_FLQEFYQDDELGK(Methyl (K))K_] is above or exactly 400 Å².
Result: satisfied
